System: MDA-MB-231 breast
run description: NCI tumour cell line growth inhibition, 48 h; in the data active = GI50 below about 0.43 µM; inactive = the rest
Valid outcomes are listed here; reply with one: y (active), n (inactive)

See these solved cases before continuing.
• COc1ccc2c(c1)C(C)Cc1c(ncnc1-n1cnc3cc(C)ccc31)N2C (configuration not stated) = y
• O=C(OCc1ccc2c(Cl)cc(Cl)c(O)c2n1)N1CCN(C(=O)c2cc3cc(F)ccc3[nH]2)CC1 = n

Qu. Lab log entry: CCN(CC)c1cc2oc3cc(N)cc(=N)c-3nc2cc1C — outcome as called in the assay?
Ans. n

Qu. Quick one: Cc1cc(C)n(-c2nnc3n2N=C(c2ccc(-c4ccccc4)cc2)CS3)n1
Ans. n

Qu. Okay, and C[C@H]1CCC/C=C/[C@@H]2C[C@H](O)C[C@H]2[C@H](O)[C@@H](SCC(O)CO)CC(=O)O1 (some centres not stated) ?
Ans. n

Qu. Then what about the molecule O=C1CSC(c2ccc(-c3nc4ccccc4s3)cc2)=N1 ?
Ans. n

Qu. And then CC/C=C/C/C=C/C/C=C/C/C=C/C/C=C/C/C=C/CCC(=O)Nc1ccn([C@@H]2O[C@H](CO)[C@@H](O)C2(F)F)c(=O)n1 , what is it?
Ans. n

###

Tested on: MDA-MB-435
run description: NCI tumour cell line growth inhibition, 48 h
Listing: TGI of selected compounds
Kindly provide the numeric value in µM only, without the unit symbol.

A selection of reference data follows.
- CC1=C(C(=O)Nc2ccccc2)C(c2ccc(C3C(C(=O)Nc4ccccc4)=C(C)NC(C)=C3C(=O)Nc3ccccc3)cc2)C(C(=O)Nc2ccccc2)=C(C)N1: 5.83
- O=C(O)c1c2c(cc3c1CC1(Cc4ccccc4C1=O)C3)CCC2 (stereo not given): 16

Qu. Given OC1(c2ccc(Cl)cc2)c2ccc(CN3CCCC3)cc2C2=NCCN21 (stereo not given) , state its recorded TGI.
Ans. 23.5

###

TGI values by entry
System: SF-295 CNS
run description: NCI tumour cell line growth inhibition, 48 h

Qu. Which TGI is listed for O=c1nc(-c2ccccc2)cc(-c2ccccc2O)[nH]1 ?
Ans. > 100 µM

Qu. Follow-up item: NC(=S)N/N=C/c1cc(-c2cccc(N)c2)ccn1
Ans. 31 µM

Qu. Then CC/C=C/C/C=C/C/C=C/C/C=C/C/C=C/C/C=C/CCC(=O)Nc1ccn([C@@H]2O[C@H](CO)[C@@H](O)C2(F)F)c(=O)n1 ?
Ans. 19.8 µM

Qu. Check CN1CCN(c2ccc(Nc3ncc4cc(C#N)c(=O)n(C5CCCC5)c4n3)cc2)CC1 too.
Ans. > 42.6 µM

Qu. Also c1ccc(C2=Nn3c(CCCCCCCCc4nnc5n4N=C(c4ccccc4)CS5)nnc3SC2)cc1 ?
Ans. 55.3 µM

Qu. Cool, now O=c1oc2ccc(Br)cc2c(=O)n1-c1ccc(F)cc1F
Ans. 3.71 µM

Qu. Repeat with NS(=O)(=O)c1ccc(NC(NC(=O)C(C(F)(F)F)C(F)(F)F)(C(F)(F)F)C(F)(F)F)cc1
Ans. > 100 µM

Qu. Similarly, N#CCCN(CCC#N)c1ccc(/C=C2\SC(=S)NC2=O)cc1Br ?
Ans. > 100 µM

Qu. Same for N#Cc1c(C#N)c(-c2ccccc2)n(-c2ccccc2)c1N
Ans. > 100 µM

Qu. Likewise for CC1C(c2ccc3c(c2)OCO3)c2cc3c(cc2OC1N1CCOCC1)OCO3 (stereo not given) ?
Ans. > 93 µM

Qu. Please give the result for Cc1ccc(-c2c(C#N)c(-c3ccc([N+](=O)[O-])cc3)c(C#N)c(=O)n2NS(=O)(=O)c2ccccc2)cc1 too.
Ans. > 100 µM

Qu. What do you get for O=C(O)c1c2c(cc3c1CC1(Cc4ccccc4C1=O)C3)CCC2 (stereo not given) ?
Ans. > 100 µM

Qu. Would you mind doing CC(C)(C)OC(=O)n1c(-c2ccccc2F)cc(=O)c2cc3c(cc21)OCO3 as well?
Ans. > 100 µM

Qu. Continue with O=c1n(Cc2ccccc2)c(=O)n2c(=O)n(Cc3ccccc3)c(=O)n12
Ans. > 100 µM

Qu. Also, COC(=O)[C@H](C)NC(=O)[C@H](CSC)N1C(=O)N[C@@H](C(C)C)C1=O please.
Ans. > 100 µM

Qu. Then what about the compound CCOc1ccccc1NC(=O)C(=O)Cc1nc2ccccc2s1 ?
Ans. > 100 µM

Qu. Now this one: CC1CN1c1c(C(=O)/C=C/c2ccc(Cl)cc2)c(-c2ccccc2)nn(C)c1=O (stereo not given)
Ans. > 10 µM

Source: PubChem BioAssay (NCI)
